# Tested on: MS2 coat protein
# measurement.description: apparent KD of MS2 coat protein; designed switch direction (-1 OFF switch, 1 ON switch): 1; higher = weaker reporter binding
# experimental.conditions: Eterna round: R95; input ligand: microRNA oligo, concentration not stated
Everything with apparent KD of MS2 coat protein lower than 0.09 µM is false (0); everything else, including exactly 0.09 µM, is true (1).

Query: Is the recorded value of apparent KD of MS2 coat protein equal to or greater than 0.09 µM for this sequence? AGCUGUGGAAAACUAUAGCAAAAGUAUGUACAUGAGGAUCACCCAUGUCAUGUACAAGCUUUUUGCUCGUCUUAAAA [ak 5 mod of one Eli's designs.] (puzzle: Sensor for hsa-mir-208a)
Reply: false (0)

Query: Does apparent KD of MS2 coat protein meet or surpass 0.09 µM for GUUAAACAUGAGGAUCACCCAUGUAAUAUAAUGGGAGGAUAUCUGAAUUAAUUAAAUUAAGGAGAAGGCCUAAUUG [Mat - Same State 1 - Mod of Eli - D52] (puzzle: Same State 1) ?
Reply: true (1)

Query: apparent KD of MS2 coat protein >= 0.09 µM for UCUUGGUUUUUGCUCGUUUUUUGUGUUGAACAUGAGGAUCACCCAUGUAUUGUACGGUCCGGUUUAGUAAUGGUCCG [JMF 11] (puzzle: Sensor for hsa-mir-208a) ?
Reply: false (0)

Query: Please tell me: is the sequence UAGAGAGGAAGCGAGGAUAUCGUGGGAGGGACAUGAGGAUCACCCAUGUAGGAUGUUGAGAGGAACGAGAAGGCGCAGGAAAGAA [JR_SS2_Sub075] (puzzle: Same State 2) at or over 0.09 µM in terms of apparent KD of MS2 coat protein?
Reply: false (0)

Query: Form field: apparent KD of MS2 coat protein at least 0.09 µM? Entry: CGUCCAGCCUGAGCUGGACAAAAGCAUGUACAUGAGGAUCACCCAUGUUCAUGUACAAGCUUUUUGCUCGUCUUAUC [salish99_208a_r3_055] (puzzle: Sensor for hsa-mir-208a)
Reply: false (0)

Query: Given the entry AACAAUCUAUCUGAGGAUAUCAUGAAAUAAACAUGAGGAUCACCCAUGUGCAGGAAAACUUCAUAUGAGAAGGCAGAUAGAUUGA [salish99_ss2_r3_045] (puzzle: Same State 2) , answer whether its apparent KD of MS2 coat protein meets or surpasses 0.09 µM.
Reply: false (0)

Query: Tell me whether apparent KD of MS2 coat protein is at least 0.09 µM here: UCAAGCGUUUGGCUCGUCUUAUGUUUUGUACAUGAGGAUCACCCAUGUUUUGUACGAUCCAGUUAGAUGGUAUUUUG [JR_SHM208A_Sub038] (puzzle: Sensor for hsa-mir-208a)
Reply: true (1)

Query: Hello, I need to know if GGCUAUCGCGUUCGAUAGCUUAAGCAUGUACAUGAGGAUCACCCAUGUCAUGUACAAGCUUUUUGCUCGUAUCUUAU (puzzle: Sensor for hsa-mir-208a) has measured apparent KD of MS2 coat protein not below 0.09 µM. Thanks!
Reply: false (0)

Query: Determine whether this sequence has apparent KD of MS2 coat protein no lower than 0.09 µM: GGAGCCGGCACCGAGGAUAUUCAUAUUAAAACAUGAGGAUCACCCAUGUAGGUCAAAAGACCUUGGGAGAAGGCGGAUCGGCUCG [Xeonanis - 31] (puzzle: Same State 2)
Reply: true (1)

Query: Textbook exercise: given the entry GAAUAAGUUUACGAGGAUAUGUUCCGCAUAACAUGAGGAUCACCCAUGUGAACAAGAAAGGCGACGCAGAAGGCGUGAGCAGAAG [Mat - Same State 2 - Mod of UCT - D100] (puzzle: Same State 2) , state whether its apparent KD of MS2 coat protein is greater than or equal to 0.09 µM.
Reply: false (0)

Query: Is apparent KD of MS2 coat protein at least 0.09 µM? Consider AUUAAACAUGAGGAUCACCCAUGUAAUAUUAUGGGAGGAUAUGCGAAUUUAAUUAAUUAAGCAGAAGGCCUAAUUA [Mat - Same State 1 - D101] (puzzle: Same State 1)
Reply: true (1)

Query: Exam item: decide whether the reported apparent KD of MS2 coat protein for GCGGCGGCACGGCAGGAUAUGAUAUAACCUACAUGAGGAUCACCCAUGUCGGCGGGUUGCAAAAUUCAGAAGGGCCCUGUAGGCC [Inberere] (puzzle: Same State 2) is at least 0.09 µM.
Reply: false (0)

Query: Please check the record GACUAUCUAUCUCAGGAUAUCAUGUCAAAGACAUGAGGAUCACCCAUGUACCAGGAAACUGGUUAUGAGAAGGGAGAUAGAUAGA [Mat - Same State 2 - Mod - D44] (puzzle: Same State 2) and state if its apparent KD of MS2 coat protein is at or above 0.09 µM.
Reply: false (0)

Query: Decide: apparent KD of MS2 coat protein of ACGCAGCUGGGUAAGGAUAUCGGUGGUAAAACAUGAGGAUCACCCAUGUCCGAAGCUCGGACCUCCGAGAAGGUGCCCGGCUGCG [Soinraesar Omei Mod 7] (puzzle: Same State 2) >= 0.09 µM?
Reply: false (0)

Query: Does apparent KD of MS2 coat protein meet or surpass 0.09 µM for GGUCCAGCCUGAGCUGGACAAAAGCAUGUACAUGAGGAUCACCCAUGUUCAUGUACAAGCUUUUUGCUCGUCUUACG [salish99_208a_r3_086] (puzzle: Sensor for hsa-mir-208a) ?
Reply: false (0)

Query: Has AAGUAACAUGAGGAUCACCCAUGUGAGGUGAGCGUAGGAUAUCGAGAAGGAAGGGUGGAGCGAGAAGGACGAGGGA [JR_SS1_Sub0101] (puzzle: Same State 1) a recorded apparent KD of MS2 coat protein greater than or equal to 0.09 µM?
Reply: true (1)

Query: Would you say GUCAGGCAAGCUUUUUUCUCGUAGUGUAAACAUGAGGAUCACCCAUGUGCUCGCCCUGGAUCUUUGGAUCCCAGAAA [Anedraus] (puzzle: Sensor for hsa-mir-208a) shows apparent KD of MS2 coat protein at minimum 0.09 µM?
Reply: false (0)
